The following binders are shown together with reported peptide exchange yield values.
SUBJECT OF TEST: T1, HLA-A*03:01 (human)
T1 construct: also called peptide-receptive MHC molecules
ASSAY PROTOCOL: UV-exchange b2m ELISA; exchange-yield grade

Some solved entries appear below for comparison.
>  <BINDER>
QIHDHVNPK

>  <RECORDED MEASUREMENT>
20 to 50%

$$$$
>  <BINDER>
AVFNPRFYRTY

>  <RECORDED MEASUREMENT>
20 to 50%

$$$$
>  <BINDER>
KTLELRVAY

>  <RECORDED MEASUREMENT>
20 to 50%

$$$$
>  <BINDER>
AVRKPIVLK

>  <RECORDED MEASUREMENT>
50 to 75%

$$$$
>  <BINDER>
SMYYPLQLK

>  <RECORDED MEASUREMENT>
50 to 75%

$$$$
>  <BINDER>
VLLGSLFSRK

>  <RECORDED MEASUREMENT>
20 to 50%

$$$$

Q. Recorded peptide exchange yield of ISYSGQFLVK , please.
A. 50 to 75%

Q. Recorded peptide exchange yield of RLKGDAWVYK , please.
A. 50 to 75%

Q. Recorded peptide exchange yield of SVSGVKTTF , please.
A. 20 to 50%

Q. Recorded peptide exchange yield of LLQPPPLLAR , please.
A. 20 to 50%

Q. Recorded peptide exchange yield of RVFTSSIKTK , please.
A. 20 to 50%

Q. Recorded peptide exchange yield of KTFTIKRFLAK , please.
A. 20 to 50%

Q. Recorded peptide exchange yield of VVHAVFALK , please.
A. 50 to 75%

Q. Recorded peptide exchange yield of QSMYYPLQLK , please.
A. 20 to 50%

Q. Recorded peptide exchange yield of RLFTSPIMTK , please.
A. 50 to 75%

Reference source for all entries: patent US20180222961A1
